For each entry below, report its %Inh value.
Test system: ROCK2
assayConditions: concentration: 1 μM,replicates: in singlicate; n = 1
Numbers only, in %.

Previously resolved entries follow.
compound: CC(=O)c1c(-c2ccncc2)[nH]c(-c2ccncc2)c1C
systemTested: ROCK2
scaleUnit: %
%Inh: 27
--
compound: COc1cc2ncn(-c3cc(OCC4CCCCC4)c(C(N)=O)s3)c2cc1OC
systemTested: ROCK2
scaleUnit: %
%Inh: 0
--
compound: O=c1[nH]cc(-c2ccc(O)cc2)c2sc(-c3ccncc3)cc12
systemTested: ROCK2
scaleUnit: %
%Inh: 18
--
compound: O=C(Nc1n[nH]c2cc(-c3ccco3)ccc12)C1CC1
systemTested: ROCK2
scaleUnit: %
%Inh: 0
--
compound: Cn1ccc2ncnc(Oc3ccc(NC(=O)Nc4cnn(C(C)(C)C)c4)c(Cl)c3)c21
systemTested: ROCK2
scaleUnit: %
%Inh: 0
--
compound: CCn1c(-c2nonc2N)nc2cncc(Br)c21
systemTested: ROCK2;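 also: KINOMEscan kinase panel screen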
scaleUnit: %
%Inh: 99.6

For each of the compounds below, state %Inh.
1. C[C@@H](Oc1cc(-n2cnc3cc(-c4cnn(C)c4)ccc32)sc1C(N)=O)c1ccccc1Cl
2. CCNCC(Cc1ccccc1)NC(=O)c1cc(Br)c(-c2ccnc3[nH]ccc23)s1.Cl.Cl (stereo not shown)
3. CCN1CCN(CCCC(=O)Nc2n[nH]c3nc(-c4ccc(O)cc4)c(Br)cc23)CC1
4. CSc1nccc(-c2c(-c3ccc(F)cc3)ncn2CCCN2CCOCC2)n1.Cl
5. Cc1ccc2c(-c3ccnc(Nc4ccc(C(F)(F)F)cc4)n3)cnn2n1
6. NC(=O)Nc1sc(-c2ccc(F)cc2)cc1C(N)=O
7. O=C(Nc1ccccc1)c1cccc(Oc2ccc3nccn3n2)c1
8. CC(=O)Nc1nc2cnc(Nc3cc(NC(=O)c4cccc(CC(C)(C)C#N)c4)ccc3C)nc2s1

1: 11; 2: 99.6; 3: 0; 4: 10; 5: 0; 6: 0; 7: 0; 8: 0

# per-item lookup of %Inh; items listed below
1. Cn1cc(-c2cccc3c(N)c(C(N)=O)nnc23)cn1
2. CC(C)c1nc(-c2cccc(NS(=O)(=O)c3ccccc3)c2)c(-c2ccnc(Nc3ccc4c(c3)CN(C)CC4)n2)s1
3. Cc1ccc(Nc2ccnc(Nc3ccc4c(c3)CS(=O)(=O)C4)n2)cc1O.Cl
4. CCCC(=O)Nc1n[nH]c2ncccc12
5. COc1cc2nccc(Nc3ccc(Oc4ccccc4)cc3)c2cc1OC.Cl

1. 20
2. 0
3. 50
4. 0
5. 29
